For each entry below, report its AUC(0-t) value.
Experiment: Pharmacokinetic study of 10 major BYQZF components in plasma (UPLC-MS/MS)
Details: male, C57BL/6J, mouse, plasma, po, 5 g/kg, AUC(0-t), plasma, oral BYQZF 5 g crude drug/kg, group MPTP+BYQZF (PD model mice), n=6
Write down the numeric answer in ng·h/mL and omit the unit.

Tell me AUC(0-t) reported for O=c1cc[nH]c(=O)[nH]1 [Uracil]
0.166

Tell me AUC(0-t) reported for O[C@H]1[C@H](O)[C@@H](O)[C@H](O)[C@@H](O)[C@H]1O [Inositol]
0.0615

Tell me AUC(0-t) reported for O=c1c(O)c(-c2ccccc2)oc2ccccc12 [3-Hydroxyflavone]
0.341

Tell me AUC(0-t) reported for N[C@@H](CCC(=O)O)C(=O)O [L-Glutamic acid]
0.0832

Tell me AUC(0-t) reported for C[C@@H]1O[C@@H](O[C@@H]2[C@@H](O)[C@H](OCCc3ccc(O)c(O)c3)O[C@H](COC(=O)/C=C/c3ccc(O)c(O)c3)[C@H]2O)[C@H](O)[C@H](O)[C@H]1O [Isoacteoside]
2.18

###

Assay: Pharmacokinetic study of 10 major BYQZF components in plasma (UPLC-MS/MS)
Conditions: oral BYQZF 5 g crude drug/kg, p < 0.05
quantity kind: pharmacokinetics in MPTP + BYQZF group compared with BYQZF without MPTP group

compound | assay result
O=c1c(O[C@@H]2O[C@H](CO)[C@H](O)[C@H](O)[C@H]2O)c(-c2ccc(O)c(O)c2)oc2cc(O)cc(O)c12 | significantly different
O=c1c(O)c(-c2ccccc2)oc2ccccc12 [3-Hydroxyflavone] | significantly different
C[C@@H]1O[C@@H](O[C@@H]2[C@@H](O)[C@H](OCCc3ccc(O)c(O)c3)O[C@H](COC(=O)/C=C/c3ccc(O)c(O)c3)[C@H]2O)[C@H](O)[C@H](O)[C@H]1O [Isoacteoside] | significantly different
N[C@@H](CC(=O)N[C@@H](CC(=O)O)C(=O)O)C(=O)O | significantly different

###

Assay: Pharmacokinetic study of 10 major BYQZF components in plasma (UPLC-MS/MS)
Details: male, C57BL/6J, mouse, plasma, po, 5 g/kg, Cmax, plasma, oral BYQZF 5 g crude drug/kg, group BYQZF (without MPTP), n=6
For each entry below, report its Cmax value.
Write down the numeric answer in ng/mL and omit the unit.

Tell me Cmax reported for C[C@@H]1O[C@@H](O[C@@H]2[C@@H](O)[C@H](OCCc3ccc(O)c(O)c3)O[C@H](COC(=O)/C=C/c3ccc(O)c(O)c3)[C@H]2O)[C@H](O)[C@H](O)[C@H]1O [Isoacteoside]
0.248

Tell me Cmax reported for `O=c1cc[nH]c(=O)[nH]1`
0.23

Tell me Cmax reported for `O[C@H]1[C@H](O)[C@@H](O)[C@H](O)[C@@H](O)[C@H]1O`
0.0582

Tell me Cmax reported for O=c1c(O)c(-c2ccccc2)oc2ccccc12 [3-Hydroxyflavone]
0.105

###

For each entry below, report its MRT last value.
Assay: Pharmacokinetic study of 10 major BYQZF components in plasma (UPLC-MS/MS)
Settings: male, C57BL/6J, mouse, plasma, po, 5 g/kg, MRT(0-t), plasma, oral BYQZF 5 g crude drug/kg, group BYQZF (without MPTP), n=6
Write down the numeric answer in h and omit the unit.

Tell me MRT last reported for O=c1cc[nH]c(=O)[nH]1 [Uracil]
2.01

Tell me MRT last reported for O[C@H]1[C@H](O)[C@@H](O)[C@H](O)[C@@H](O)[C@H]1O [Inositol]
2.81

Tell me MRT last reported for C[C@@H]1O[C@@H](O[C@@H]2[C@@H](O)[C@H](OCCc3ccc(O)c(O)c3)O[C@H](COC(=O)/C=C/c3ccc(O)c(O)c3)[C@H]2O)[C@H](O)[C@H](O)[C@H]1O [Isoacteoside]
7.9

Tell me MRT last reported for N[C@@H](CCC(=O)O)C(=O)O [L-Glutamic acid]
4.47

Tell me MRT last reported for O=c1c(O)c(-c2ccccc2)oc2ccccc12 [3-Hydroxyflavone]
5.17

These measurements were taken from paper PMC12686966.
